Origin of measurements: PubChem BioAssay AID1963986

# Tested on: 171881-019-R-J1-PDC tumor spheroid viability
# Protocol Text: Anticancer human tumor 171881-019-R-J1-PDC patient-derived invasive breast carcinoma cell line growth inhibition [PI3K]
# Condition: second compound 1 µM; first compound 3.16 µM; hits give low values; spheroids with HUVEC and MSC
# Text: Combinatorial screen of targeted agents with the PI3K inhibitors inavolisib, alpelisib, duvelisib, and copanlisib in multi-cell type tumor spheroids A high-throughput screen of multi-cell type tumor spheroids was designed to identify active combinations of targeted small molecules and PI3K pathway inhibitors. […] Compounds. […] If the clinical Cmax for an agent had not been determined, the highest concentration tested was 10 microM. […]
Observable: viability, T/C (%)
Reply with just the number (in %).

Challenge: Field: viability, T/C (171881-019-R-J1-PDC tumor spheroid viability). Entry: CC(C)NCC(C(=O)N1CCN(c2ncnc3c2C(C)CC3O)CC1)c1ccc(Cl)cc1 (stereo not drawn) + COc1c(OCCCN2CCOCC2)ccc2c3n(c(=NC(=O)c4cnc(N)nc4)nc12)CCN3
Response given: 1.05

Challenge: What do you get for Cn1ncc(Cl)c1-c1cc(C(=O)NC(CN)Cc2cccc(F)c2)sc1Cl (stereo not drawn) + Cc1nc(NC(=O)N2CCCC2C(N)=O)sc1-c1ccnc(C(C)(C)C(F)(F)F)c1 ?
Response given: 8.96

Challenge: # repeat for CCCS(=O)(=O)Nc1ccc(F)c(C(=O)c2c[nH]c3ncc(-c4ccc(Cl)cc4)cc23)c1F + COc1c(OCCCN2CCOCC2)ccc2c3n(c(=NC(=O)c4cnc(N)nc4)nc12)CCN3
Response given: 1.64

###

Provide the reported viability, T/C of each item.
# Test system: 171881-019-R-J1-PDC tumor spheroid viability
# Protocol Text: Anticancer human tumor 171881-019-R-J1-PDC cell line growth inhibition [PI3K]
# Condition: second compound 0.316 µM; first compound 0.316 µM; hits give low values; spheroids with HUVEC and MSC

Challenge: What value of viability, T/C has been reported for the following compound? Cn1ncc(Cl)c1-c1cc(C(=O)NC(CN)Cc2cccc(F)c2)sc1Cl (stereo not drawn) + CC(Nc1ccc2c(c1)OCCn1cc(N3C(=O)OCC3C(F)F)nc1-2)C(N)=O
Response given: 18.1%

Challenge: What do you have for CC(Cn1ccc(-c2ccc(C#N)c(Cl)c2)n1)NC(=O)c1cc(C(C)O)[nH]n1 (stereo not drawn) + CC(Nc1ncnc2nc[nH]c12)c1cc2cccc(Cl)c2c(=O)n1-c1ccccc1 ?
Response given: 88.5%

Challenge: Now try CCCS(=O)(=O)Nc1ccc(F)c(C(=O)c2c[nH]c3ncc(-c4ccc(Cl)cc4)cc23)c1F + CC(Nc1ncnc2nc[nH]c12)c1cc2cccc(Cl)c2c(=O)n1-c1ccccc1 .
Response given: 103%

###

# System: 171881-019-R-J1-PDC tumor spheroid viability
# Protocol Text: Anticancer human tumor 171881-019-R-J1-PDC cell line growth inhibition [PI3K]; active = viability on the fitted dose curve at most 10% of control; inactive = the rest;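 note: spheroids exposed to compound for 7 days before viability read; 100% = DMSO vehicle-treated spheroids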
# Condition: second compound 1 µM; first compound 0.1 µM; spheroids with HUVEC and MSC
Answer with one of the outcomes given here: active, inactive

Challenge: What did the test return for Cn1ncc(Cl)c1-c1cc(C(=O)NC(CN)Cc2cccc(F)c2)sc1Cl (stereo unspecified) + CC(Nc1ncnc2nc[nH]c12)c1cc2cccc(Cl)c2c(=O)n1-c1ccccc1 ?
Response given: inactive

Challenge: For Cn1ncnc1[C@H]1c2n[nH]c(=O)c3cc(F)cc(c23)N[C@@H]1c1ccc(F)cc1 + COc1c(OCCCN2CCOCC2)ccc2c3n(c(=NC(=O)c4cnc(N)nc4)nc12)CCN3 then?
Response given: active

Challenge: Then this molecule: CC(=O)c1c(C)c2cnc(Nc3ccc(N4CCNCC4)cn3)nc2n(C2CCCC2)c1=O + COc1c(OCCCN2CCOCC2)ccc2c3n(c(=NC(=O)c4cnc(N)nc4)nc12)CCN3
Response given: active

Challenge: And what about the molecule CC(C)n1nc(-c2ccc3oc(N)nc3c2)c2c(N)ncnc21 + COc1c(OCCCN2CCOCC2)ccc2c3n(c(=NC(=O)c4cnc(N)nc4)nc12)CCN3 ?
Response given: active

Challenge: Next up: C#Cc1c(F)ccc2cc(O)cc(-c3ncc4c(N5CC6CCC(C5)N6)nc(OCC56CCCN5CC(F)C6)nc4c3F)c12 (stereo unspecified) + COc1c(OCCCN2CCOCC2)ccc2c3n(c(=NC(=O)c4cnc(N)nc4)nc12)CCN3
Response given: active

Challenge: Okay, and CCCS(=O)(=O)Nc1ccc(F)c(C(=O)c2c[nH]c3ncc(-c4ccc(Cl)cc4)cc23)c1F + CC(Nc1ncnc2nc[nH]c12)c1cc2cccc(Cl)c2c(=O)n1-c1ccccc1 ?
Response given: inactive

Challenge: Moving on to the next molecule: CC1(C)CCC(CN2CCN(c3ccc(C(=O)NS(=O)(=O)c4ccc(NCC5CCOCC5)c([N+](=O)[O-])c4)c(Oc4cnc5[nH]ccc5c4)c3)CC2)=C(c2ccc(Cl)cc2)C1 + Cc1nc(NC(=O)N2CCCC2C(N)=O)sc1-c1ccnc(C(C)(C)C(F)(F)F)c1
Response given: inactive

Challenge: # iterate: CC(C)NCC(C(=O)N1CCN(c2ncnc3c2C(C)CC3O)CC1)c1ccc(Cl)cc1 (stereo unspecified) + COc1c(OCCCN2CCOCC2)ccc2c3n(c(=NC(=O)c4cnc(N)nc4)nc12)CCN3
Response given: active

Challenge: Query CC(C)n1nc(-c2ccc3oc(N)nc3c2)c2c(N)ncnc21 + CC(Nc1ncnc2nc[nH]c12)c1cc2cccc(Cl)c2c(=O)n1-c1ccccc1 next
Response given: active

Challenge: Moving on to the next molecule: CC(C)NCC(C(=O)N1CCN(c2ncnc3c2C(C)CC3O)CC1)c1ccc(Cl)cc1 (stereo unspecified) + Cc1nc(NC(=O)N2CCCC2C(N)=O)sc1-c1ccnc(C(C)(C)C(F)(F)F)c1
Response given: inactive

Challenge: Note, next up: CC(=O)c1c(C)c2cnc(Nc3ccc(N4CCNCC4)cn3)nc2n(C2CCCC2)c1=O + CC(Nc1ccc2c(c1)OCCn1cc(N3C(=O)OCC3C(F)F)nc1-2)C(N)=O
Response given: inactive

###

# Tested on: 171881-019-R-J1-PDC tumor spheroid viability
# Protocol Text: Anticancer human tumor 171881-019-R-J1-PDC cell line growth inhibition [PI3K];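 note: spheroids exposed to compound for 7 days before viability read; 100% = DMSO vehicle-treated spheroids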
# Condition: second compound 0.01 µM; first compound 1 µM; hits give low values; spheroids with HUVEC and MSC
Assignment: determine reported viability, T/C for the given compounds.
# number only, unit % dropped from output

Challenge: What measured viability, T/C goes with C=CC(=O)N1CCN(c2nc(=O)n(-c3c(C)ccnc3C(C)C)c3nc(-c4c(O)cccc4F)c(F)cc23)C(C)C1 (stereo not drawn) + COc1c(OCCCN2CCOCC2)ccc2c3n(c(=NC(=O)c4cnc(N)nc4)nc12)CCN3 ?
Response given: 51.3

Challenge: Then Cn1ncc(Cl)c1-c1cc(C(=O)NC(CN)Cc2cccc(F)c2)sc1Cl (stereo not drawn) + CC(Nc1ccc2c(c1)OCCn1cc(N3C(=O)OCC3C(F)F)nc1-2)C(N)=O ?
Response given: 17.3

Challenge: Ok, now CC(C)NCC(C(=O)N1CCN(c2ncnc3c2C(C)CC3O)CC1)c1ccc(Cl)cc1 (stereo not drawn) + CC(Nc1ccc2c(c1)OCCn1cc(N3C(=O)OCC3C(F)F)nc1-2)C(N)=O
Response given: 24.4

###

# Test system: 171881-019-R-J1-PDC tumor spheroid viability
# Protocol Text: Anticancer human tumor 171881-019-R-J1-PDC cell line growth inhibition [PI3K]; active = viability on the fitted dose curve at most 10% of control; inactive = the rest;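 note: spheroids exposed to compound for 7 days before viability read; 100% = DMSO vehicle-treated spheroids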
# Condition: second compound 0.1 µM; first compound 10 µM; spheroids with HUVEC and MSC
# Source text: Combinatorial screen of targeted agents with the PI3K inhibitors inavolisib, alpelisib, duvelisib, and copanlisib in multi-cell type tumor spheroids A high-throughput screen of multi-cell type tumor spheroids was designed to identify active combinations of targeted small molecules and PI3K pathway inhibitors. […] Compounds. […] If the clinical Cmax for an agent had not been determined, the highest concentration tested was 10 microM. […]
Permitted responses: active, inactive

Challenge: Identify the outcome logged in this assay for the molecule shown: CC(Cn1ccc(-c2ccc(C#N)c(Cl)c2)n1)NC(=O)c1cc(C(C)O)[nH]n1 (stereo not drawn) + Cc1nc(NC(=O)N2CCCC2C(N)=O)sc1-c1ccnc(C(C)(C)C(F)(F)F)c1
Response given: inactive

Challenge: // same read-out, input: CC1(C)CCC(CN2CCN(c3ccc(C(=O)NS(=O)(=O)c4ccc(NCC5CCOCC5)c([N+](=O)[O-])c4)c(Oc4cnc5[nH]ccc5c4)c3)CC2)=C(c2ccc(Cl)cc2)C1 + CC(Nc1ccc2c(c1)OCCn1cc(N3C(=O)OCC3C(F)F)nc1-2)C(N)=O
Response given: inactive

Challenge: How about this molecule: Cn1ncc(Cl)c1-c1cc(C(=O)NC(CN)Cc2cccc(F)c2)sc1Cl (stereo not drawn) + COc1c(OCCCN2CCOCC2)ccc2c3n(c(=NC(=O)c4cnc(N)nc4)nc12)CCN3
Response given: active

###

# System: 171881-019-R-J1-PDC tumor spheroid viability
# Protocol Text: Anticancer human tumor 171881-019-R-J1-PDC cell line growth inhibition [PI3K];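 note: spheroids exposed to compound for 7 days before viability read; 100% = DMSO vehicle-treated spheroids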
# Condition: second compound 10 µM; first compound 10 µM; hits give low values; spheroids with HUVEC and MSC
Answer each item with its documented viability, T/C.
Please reply with the bare figure in % and do not write the unit itself.

Challenge: Recall the recorded viability, T/C for CC(C)NCC(C(=O)N1CCN(c2ncnc3c2C(C)CC3O)CC1)c1ccc(Cl)cc1 (stereo not given) + Cc1nc(NC(=O)N2CCCC2C(N)=O)sc1-c1ccnc(C(C)(C)C(F)(F)F)c1 with 171881-019-R-J1-PDC tumor spheroid viability and state it.
Response given: 1.56

Challenge: Can you handle C#Cc1c(F)ccc2cc(O)cc(-c3ncc4c(N5CC6CCC(C5)N6)nc(OCC56CCCN5CC(F)C6)nc4c3F)c12 (stereo not given) + Cc1nc(NC(=O)N2CCCC2C(N)=O)sc1-c1ccnc(C(C)(C)C(F)(F)F)c1 next?
Response given: 0.74

Challenge: Repeat for the following compound: CC1(C)CCC(Nc2ncc(C(F)(F)F)c(-c3c[nH]c4c(P(C)(C)=O)c(C#N)ccc34)n2)CN1 (stereo not given) + CC(Nc1ncnc2nc[nH]c12)c1cc2cccc(Cl)c2c(=O)n1-c1ccccc1
Response given: 3.63

Challenge: Next up: C[C@@H](NC(=O)c1ncnc(N)c1Cl)c1ncc(C(=O)Nc2cc(C(F)(F)F)c(Cl)cn2)s1 + Cc1nc(NC(=O)N2CCCC2C(N)=O)sc1-c1ccnc(C(C)(C)C(F)(F)F)c1
Response given: 0.49

Challenge: One more compound: Cn1ncc(Cl)c1-c1cc(C(=O)NC(CN)Cc2cccc(F)c2)sc1Cl (stereo not given) + Cc1nc(NC(=O)N2CCCC2C(N)=O)sc1-c1ccnc(C(C)(C)C(F)(F)F)c1
Response given: 0.18
